For each of the binders below, state its competition rate.
molecular target: T1, human MSLN-FL-his protein (human, UniProt Q13421 296-580); experiment: competitive ELISA; row Tab142; further: test concentration or dose not given here
T1 construct: made in HEK293E cells, purified on nickel column; also called hMSLN-FL-his; human MSLN full-length protein; not shown: His tag
T1 sequence (Q13421 other isoform, or with tags, fused parts or gaps): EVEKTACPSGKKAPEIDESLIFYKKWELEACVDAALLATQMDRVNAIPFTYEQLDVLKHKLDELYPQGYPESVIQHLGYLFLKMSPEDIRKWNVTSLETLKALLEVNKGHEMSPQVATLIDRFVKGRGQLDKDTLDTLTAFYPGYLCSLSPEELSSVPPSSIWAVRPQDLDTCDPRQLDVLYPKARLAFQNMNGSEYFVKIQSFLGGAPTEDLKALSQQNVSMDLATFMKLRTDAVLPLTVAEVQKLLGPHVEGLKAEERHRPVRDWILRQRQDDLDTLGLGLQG
Give bare numbers, in %.

S009-F8-31.22 (antibody, human IgG1, kappa, V domains shown, human-murine chimeric antibody, human IgG1/kappa constant regions) VH: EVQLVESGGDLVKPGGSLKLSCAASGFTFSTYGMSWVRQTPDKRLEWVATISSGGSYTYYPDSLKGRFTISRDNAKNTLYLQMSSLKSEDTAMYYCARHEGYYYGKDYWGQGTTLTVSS VL: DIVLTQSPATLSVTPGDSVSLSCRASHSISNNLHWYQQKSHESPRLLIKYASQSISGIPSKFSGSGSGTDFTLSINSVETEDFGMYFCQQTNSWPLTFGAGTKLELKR
12.9
S009-F8-13.8 (antibody, human IgG1, kappa, V domains shown, human-murine chimeric antibody, human IgG1/kappa constant regions) VH: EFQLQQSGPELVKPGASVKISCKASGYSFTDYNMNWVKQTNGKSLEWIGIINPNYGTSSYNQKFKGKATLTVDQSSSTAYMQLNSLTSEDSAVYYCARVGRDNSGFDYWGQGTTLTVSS VL: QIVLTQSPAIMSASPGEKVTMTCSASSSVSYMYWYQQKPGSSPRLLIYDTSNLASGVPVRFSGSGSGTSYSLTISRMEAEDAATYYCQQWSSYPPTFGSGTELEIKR
93.8

q: Record request: competition rate value, item S009-F8-18.9 (antibody, human IgG1, kappa, V domains shown, human-murine chimeric antibody, human IgG1/kappa constant regions) VH: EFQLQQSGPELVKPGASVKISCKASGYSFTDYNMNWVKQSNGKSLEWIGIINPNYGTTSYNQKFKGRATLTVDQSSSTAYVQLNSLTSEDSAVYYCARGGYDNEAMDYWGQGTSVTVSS VL: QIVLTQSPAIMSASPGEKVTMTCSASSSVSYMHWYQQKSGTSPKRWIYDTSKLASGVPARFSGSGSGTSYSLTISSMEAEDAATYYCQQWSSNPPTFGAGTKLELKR
a: 85.5

Reference source: patent US20250250357A1
